molecular target: Clr4 chromodomain (residues 1-70) (S. pombe, UniProt O60016 1-70); assay: fluorescence polarisation
Sequence (O60016 1-70): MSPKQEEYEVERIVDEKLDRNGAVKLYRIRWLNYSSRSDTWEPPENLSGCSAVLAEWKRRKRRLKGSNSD
// values below are reported pKd
In textbook form, pKd equals minus log to base ten of the concentration in mol/L.

binder="ARTKQTARKSTGGKAY (dimethyl-lysine at 9; fluorescein (position not given)) [fluorescein labeled H3K9me2 peptide]" measuredvalue=5.54

Pending binder:
pKd in this record for ARTKQTARKSTGGKAY (trimethyl-lysine at 9) [H3K9me3 peptide (fluorescence polarization)] : 6.22
